Target or system BCL6 BTB domain (Homo sapiens (Human)); recorded quantity pKd.
One number for each entry, as −log10 of the molar value.

Here are 3 molecules together with their reported answers.
>>> print(df.to_string())
                                chem_smiles  reported_measurement
0  C[C@H]1COCCN1c1cc(NC(=O)Cn2cc(-c3cc(C(N)=O)c(O)c(Cl)c3F)c3c(=O)n(C)cnc32)c(Cl)c(F)n1                  7.02
1  CO[C@H]1CN(c2cc(NC(=O)Cn3cc(-c4cc(Cl)c(O)c(C(N)=O)c4)c4c(=O)n(C)c(C)nc43)c(Cl)c(F)n2)C[C@H]1F                  7.56
2  C[C@H]1CN(C)CCN1c1cc(NC(=O)Cn2cc(-c3cc(F)c(O)c(C(N)=O)c3)c3c(=O)n(CCC(=O)c4cnn(C)c4)cnc32)c(Cl)c(F)n1                  7.63

Dear colleague, could you send me pKd for each of the items below? Thanks.
1. Cn1c(NCCC(F)(F)F)nc2c(c(-c3cc(Cl)c(O)c(C(N)=O)c3)cn2CC(=O)Nc2cc(N3CCOCC3)ncc2Cl)c1=O
2. CC(C)[C@@H]1CN(c2cc(NC(=O)Cn3cc(-c4cc(Cl)c(O)c(C(N)=O)c4)c4c(=O)n(C)cnc43)c(Cl)cn2)CCO1
3. C[C@H]1COCCN1c1cc(NC(=O)Cn2cc(-c3cc(Cl)c(O)c(C(N)=O)c3)c3c(=O)n(C)c(C(F)(F)F)nc32)c(Cl)cn1

[out]
7.01
7.36
7.12

----------
Target: BCL6 BTB domain (Homo sapiens (Human))
Experiment: Surface plasmon resonance (SPR) assay
Format: binding
Details: BCL6 BTB domain captured on SA chip, single cycle kinetics
I'd be grateful if you could share measured Kd for these entries.
One number for each entry, in µM.

In [3]: df
Out[3]:
                                chem_smiles  measurement_kind  reported_measurement
0  CO[C@@H](C)CN1CCN(c2cc(NC(=O)Cn3cc(-c4cc(C(N)=O)c(O)c(F)c4F)c4c(=O)n(C)cnc43)c(Cl)c(F)n2)[C@@H](C)C1                Kd                0.0503
1  C[C@H]1COCCN1c1cc(NC(=O)Cn2cc(-c3cc(Cl)c(O)c(C(N)=O)c3)c3c(=O)n(C)ccc32)c(Cl)cn1                Kd                 0.178
2  C[C@H]1CN(CC(F)(F)F)CCN1c1cc(NC(=O)Cn2cc(-c3cc(Cl)c(O)c(C(N)=O)c3)c3c(=O)n(C)c(C(F)(F)F)nc32)c(Cl)cn1                Kd                   2.1

For the 3 compounds below, give their Kd values.
1. CCCN1CCN(c2cc(NC(=O)Cn3cc(-c4cc(C(N)=O)c(O)c(F)c4F)c4c(=O)n(C)cnc43)c(Cl)cn2)[C@@H](C)C1
2. Cn1cnc2c(c(-c3cc(Cl)c(O)c(C(N)=O)c3)cn2CC(=O)Nc2cc(N3Cc4ccncc4C3)ncc2Cl)c1=O
3. C[C@H]1COCCN1c1cc(NC(=O)Cn2cc(-c3cc(C(N)=O)c(O)c(Cl)c3F)c3c(=O)n(C)cnc32)c(Cl)cn1

[out]
0.0384
0.0207
0.299

----------
For each of the compounds below, state its pKd.
Target: BCL6 BTB domain (Homo sapiens (Human))
Numbers only, as −log10 of the molar value.

>>> print(df.to_string())
                                   compound                         target_of_assay  reported_measurement
0  Cc1cc(-c2cn(CC(=O)Nc3cc(N4CCOCC4)ncc3Cl)c3ncn(C)c(=O)c23)cc(C(N)=O)c1O  BCL6 BTB domain (Homo sapiens (Human))                  6.55
1  C[C@H]1COCCN1c1cc(NC(=O)Cn2cc(-c3cc(Cl)c(O)c(C(N)=O)c3)c3c(=O)[nH]cnc32)c(Cl)cn1  BCL6 BTB domain (Homo sapiens (Human))                  8.22
2  C[C@H]1COCCN1c1cc(NC(=O)Cn2cc(-c3cc(C(N)=O)c(O)c(F)c3F)c3c(=O)n(CC#Cc4cnn(C)c4)cnc32)c(Cl)cn1  BCL6 BTB domain (Homo sapiens (Human))                  8.04
3  Cn1cnc2c(c(-c3cc(F)c(O)c(C(N)=O)c3)cn2CC(=O)Nc2cc(N3C[C@H]4CC[C@@H](C3)N4CC(F)(F)F)ncc2Cl)c1=O  BCL6 BTB domain (Homo sapiens (Human))                  7.86
4  Cc1cc(-c2cn(CC(=O)Nc3cc(N4CCOCC4)ncc3Cl)c3ccn(C)c(=O)c23)cc(C(N)=O)c1O  BCL6 BTB domain (Homo sapiens (Human))                  5.66

Could you tell me pKd for each of these compounds? They are listed below.
1. CCN1CCN(c2cc(NC(=O)Cn3cc(-c4cc(F)c(O)c(C(N)=O)c4)c4c(=O)n(C)cnc43)c(Cl)c(F)n2)[C@@H](C)C1
2. C[C@H]1CN(C)CCN1c1cc(NC(=O)Cn2cc(-c3cc(Cl)c(O)c(C(N)=O)c3)c3c(=O)n(C)c(C(F)(F)F)nc32)c(Cl)c(F)n1
3. Cn1cnc2c(c(-c3cc(C(N)=O)c(O)cc3F)cn2CC(=O)Nc2cc(N3CC4CCC(C3)O4)ncc2Cl)c1=O
4. Cn1cnc2c(c(-c3cc(Cl)c(O)c(C(N)=O)c3)cn2CC(=O)Nc2cc(N3CCOC4(CCC4)C3)ncc2Cl)c1=O
5. Cn1cnc2c(c(-c3cc(Cl)c(O)c(C(N)=O)c3)cn2CC(=O)Nc2cc(N3CC4CC3CN4CC(F)(F)F)ncc2Cl)c1=O (stereo not drawn)
6. C[C@H]1CN(C)CCN1c1cc(NC(=O)Cn2cc(-c3cc(F)c(O)c(C(N)=O)c3)c3c(=O)n(CC#Cc4cnn(C)c4)cnc32)c(Cl)cn1
7. Cn1cnc2c(c(-c3cc(Cl)c(O)c(C(N)=O)c3)cn2CC(=O)Nc2cc(N3CCC(F)C3)ncc2Cl)c1=O (stereo not drawn)
8. COc1c(O)c(C(N)=O)cc(-c2cn(CC(=O)Nc3cc(N4C[C@@H](C)N[C@@H](C)C4)ncc3Cl)c3ncn(C)c(=O)c23)c1F

[out]
8.63
7.08
7.07
7.19
7.42
6.86
7.85
6.64

For the 7 compounds below, give their pKd values.
1. CN1CCCN(c2cc(NC(=O)Cn3cc(-c4cc(F)c(O)c(C(N)=O)c4)c4c(=O)n(C)cnc43)c(Cl)cn2)CC1
2. C[C@H]1COCCN1c1cc(NC(=O)Cn2cc(-c3cc(Cl)c(O)c(C(N)=O)c3)c3c(=O)[nH]c(Cl)nc32)c(Cl)cn1
3. C[C@@H]1COC[C@H](C)N1c1cc(NC(=O)Cn2cc(-c3cc(Cl)c(O)c(C(N)=O)c3)c3c(=O)n(C)cnc32)c(Cl)cn1
4. C=C(C)c1nc2c(c(-c3cc(Cl)c(O)c(C(N)=O)c3)cn2CC(=O)Nc2cc(N3CCN(C)C[C@@H]3C)ncc2Cl)c(=O)n1C
5. C[C@H]1COCCN1c1cc(NC(=O)Cn2cc(-c3cc(F)c(O)c(C(N)=O)c3F)c3c(=O)n(C)cnc32)c(Cl)c(F)n1
6. Cn1cnc2c(c(-c3cc(Cl)c(O)c(C(N)=O)c3)cn2CC(=O)Nc2cc(N3CC4CCC(F)(F)C4C3)ncc2Cl)c1=O (stereo not drawn)
7. C[C@H]1CN(CC2(C#N)CC2)CCN1c1cc(NC(=O)Cn2cc(-c3cc(C(N)=O)c(O)c(F)c3F)c3c(=O)n(C)cnc32)c(Cl)cn1

[out]
7.80
8.00
7.52
7.47
7.25
7.37
7.63

Each compound below has a reported value. Please supply its pKd.
1. C[C@H]1COCCN1c1cc(NC(=O)Cn2cc(-c3cc(Cl)c(O)c(C(N)=O)c3)c3c(=O)n(C)cnc32)c(F)cn1
2. COCCN1CCN(c2cc(NC(=O)Cn3cc(-c4cc(C(N)=O)c(O)c5c4OCO5)c4c(=O)n(C)cnc43)c(Cl)c(F)n2)[C@@H](C)C1
3. C[C@H]1CNCCN1c1cc(NC(=O)Cn2cc(-c3cc(C(N)=O)c(O)c(F)c3F)c3c(=O)n(C)cnc32)c(Cl)cn1

[out]
1: 7.71; 2: 8.88; 3: 7.61

# pKd (compound: `C[C@@H]1CN(c2cc(NC(=O)Cn3cc(-c4cc(C(N)=O)c(O)c(F)c4F)c4c(=O)n(C)cnc43)c(Cl)cn2)C[C@H](C)N1` ) is 6.94
